Recorded apparent KD of MS2 coat protein values for a group of sequences are listed next.
test system: MS2 coat protein; experiment: apparent KD of MS2 coat protein; designed switch direction (-1 OFF switch, 1 ON switch): -1; higher = weaker reporter binding; conditions: input ligand: FMN 200 uM

The examples below pair each entry with its known result.
QUERY: Return apparent KD of MS2 coat protein (reported value) for this sequence: CUCAUGUGAGGAUAUGUGAUCUGCUUUCUGUGUAGAUGAUCACAGAAGGCACAUGAGGAUCACCCAUGUAGAUC [Ex4 - 3 - 28] (Eterna round: R96, puzzle: Exclusion 4)
RESULT: 65.7 nM

QUERY: Return apparent KD of MS2 coat protein (reported value) for this sequence: CAGUGCUGACGGAGAUCCAACAUGAGGAUCACCCAUGUCUCAAAAGCUUUUUGCUCGUCUUAUCCUCCUCAGUACUC [Mat - Sensor, turn-off var - Eli Mod - D57] (Eterna round: R97, puzzle: Sensor, turn-off variant 1)
RESULT: 14.6 nM

QUERY: Return apparent KD of MS2 coat protein (reported value) for this sequence: AGCCAUGAAGGAUAUACAUGAGGAUCACCCAUGUUGCGGACAGGUUUGAUCGGCGUAGGUAGAAGGUCAAGUAG [Eternabot (L2) Solution 62] (Eterna round: R97, puzzle: Exclusion 3)
RESULT: 28.2 nM

QUERY: Return apparent KD of MS2 coat protein (reported value) for this sequence: CUAAAUCAUGUAGGAUAUGCGUGGCGAAGCUAUGCAGAAGGACAUGAGGAUCACCCAUGUGCUUCCGUCUGCGUACAGACGGUA [JL ENG1 1.16] (Eterna round: R96, puzzle: Exclusion NG 1)
RESULT: 136 nM

QUERY: Return apparent KD of MS2 coat protein (reported value) for this sequence: CUAAAUCAUGUAGGAUAUGCGUGGCGAAGCUAUGCAGAAGGACAUGAGGAUCACCCAUGUCUUUCCGUCUGCGUACAGACGGAA [JL ENG1 1.19] (Eterna round: R96, puzzle: Exclusion NG 1)
RESULT: 303 nM

New cases:
QUERY: Return apparent KD of MS2 coat protein (reported value) for this sequence: UGCGGGCUUUUGAGACCUCACAUGAGGAUCACCCAUGUGCUUGUCUUGUGGGUCGGUCGGUCGUUGGCUGGCUGGCG [Sensor-V1 #95] (Eterna round: R97, puzzle: Sensor, turn-off variant 1)
RESULT: 20 nM

QUERY: Return apparent KD of MS2 coat protein (reported value) for this sequence: GACCUGUGAGGAUAUUAUUAAAGGCCAAGUUAGGCCUUAAUUGAGAAGGCACAUGAGGAUCACCCAUGUUUGAC [Eternabot (L2) Solution 55] (Eterna round: R97, puzzle: Exclusion 4)
RESULT: 90.3 nM

QUERY: Return apparent KD of MS2 coat protein (reported value) for this sequence: GAAUAGGCAGGAUAUACAUGAGGAUCACCCAUGUGCCGGCGAAAGGUACGUUCGAAAGGUAGAAGGGCCUAAAC [ChP 13.04.2015 #7] (Eterna round: R96, puzzle: Exclusion 3)
RESULT: 176 nM

QUERY: Return apparent KD of MS2 coat protein (reported value) for this sequence: GGACCACAUGAGGAUCACCCAUGUCAGGAUAUGACGGCGUCGGCGAAAGCGGAGGCGGUCAGAAGGGACGGAAA [AK-MS2ROC-r4-exclusion1-9.0] (Eterna round: R97, puzzle: Exclusion 1)
RESULT: 84.6 nM

QUERY: Return apparent KD of MS2 coat protein (reported value) for this sequence: UUGUUAUGUGUAGGAUAUGCAUAUUAUUAUUAUGCAGAAGGACAUGAGGAUCACCCAUGUAUAUUAUUAUUAUAUGUUAUAUAU [Title] (Eterna round: R96, puzzle: Exclusion NG 1)
RESULT: 29.3 nM

QUERY: Return apparent KD of MS2 coat protein (reported value) for this sequence: CUCAUGCCUGAGGAUAUGCUGUACAAAAGUACUGCAGAAGGCAGGACAUGAGGAUCACCCAUGUGGCGAAAGCC [Omei Ex G10] (Eterna round: R97, puzzle: Exclusion 6)
RESULT: 13.4 nM

QUERY: Return apparent KD of MS2 coat protein (reported value) for this sequence: UCUCUGUGAGGAUAUUGAACGACGCCGCUAACGGGCUUGCACAAGAAGGCACAUGAGGAUCACCCAUGUCCCGA [EX4 B.28] (Eterna round: R97, puzzle: Exclusion 4)
RESULT: 29.1 nM
